Test system: RSV A2
Assay: Screening for RSV inhibition using Viral ToxGlo assay (cytopathic effect inhibition in HEp-2 cells)
Type: cell-based, Respiratory Syncytial Virus (RSV)
Conditions: human respiratory syncytial virus; RSV A2 in HEp-2 cells, MOI 0.5, 72h p.i., cytopathic effect inhibition relative to virus control, Viral ToxGlo luminescence
Procedure: Protocol for Screening Antiviral Compounds for RSV Inhibition and Cytotoxicity Using Viral ToxGlo Assay […] Cell plates were further incubated inside a humid chamber for 72h p.i at 37° C./5% CO2. […] Plates were incubated at room temperature, protected from light on a plate rocker for 20 minutes before measuring the luminescence on a spectrophotometer (Biotek Synergy HTX).
READOUT KIND: EC50 (nM)
Write the value in nM as a bare number.

>>> measured_number("O=C(N=C1NCCN1)c1cc(F)c(Nc2nccc(C(=O)N3CCOCC3)c2Cl)c(C2CC2)c1")
31.6
>>> measured_number("CC1(NC(=O)c2cccc(Nc3c(C#N)cc(C(=O)N=C4NCCN4)cc3C3CC3)c2)CC1")
45.8
>>> measured_number("CC(C)CCC(=O)Nc1ccccc1Oc1ccc(C(=O)N=C2NCCN2)cc1C1CC1")
458

Task item: Entry CC(C)(C)c1cc(C(=O)N=C2NCCN2)ccc1Nc1cccc(C(=O)NCCC2CCOC2)c1 (centres unmarked) : reported EC50 = ?
Reply: 117

Task item: Can you share its EC50? I mean this molecule: `O=C(N=C1NCCN1)c1ccc(Nc2cccc(C(=O)NC3CCS(=O)(=O)CC3)c2Cl)c(C2CC2)c1`
Reply: 240

Task item: Item `CC(C)NC(=O)c1ccccc1Nc1ccc(C(=O)N=C2NCCN2)cc1C1CC1` has what recorded EC50?
Reply: 1150

Task item: What EC50 value was documented for this molecule, `CC(C)(C)c1cc(C(=O)N=C2NCCN2)ccc1Nc1cc(C(=O)NCCC2CCOCC2)ccn1` ?
Reply: 1310

Task item: Record request: EC50 value, item `CC(C)CCNC(=O)c1ccccc1Nc1ccc(C(=O)N=C2NCCN2)cc1C1CC1`
Reply: 641

meta.source: patent US12617756B2
